Documented IC50 across a set of molecules
target: Recombinant STAT6 protein (STAT6 (W123-T658)) (Homo sapiens); construct: Recombinant STAT6 protein (STAT6 (W123-T658)); experiment: STAT6 Fluorescence Polarization (FP) Assay; type: binding; details: STAT6 250 nM, probe 5-FAM-Ap[…]-NH2 2 nM, 45-minute incubation; read-out: STAT6 (FP assay IC50)
Sequence (P42226 123-658): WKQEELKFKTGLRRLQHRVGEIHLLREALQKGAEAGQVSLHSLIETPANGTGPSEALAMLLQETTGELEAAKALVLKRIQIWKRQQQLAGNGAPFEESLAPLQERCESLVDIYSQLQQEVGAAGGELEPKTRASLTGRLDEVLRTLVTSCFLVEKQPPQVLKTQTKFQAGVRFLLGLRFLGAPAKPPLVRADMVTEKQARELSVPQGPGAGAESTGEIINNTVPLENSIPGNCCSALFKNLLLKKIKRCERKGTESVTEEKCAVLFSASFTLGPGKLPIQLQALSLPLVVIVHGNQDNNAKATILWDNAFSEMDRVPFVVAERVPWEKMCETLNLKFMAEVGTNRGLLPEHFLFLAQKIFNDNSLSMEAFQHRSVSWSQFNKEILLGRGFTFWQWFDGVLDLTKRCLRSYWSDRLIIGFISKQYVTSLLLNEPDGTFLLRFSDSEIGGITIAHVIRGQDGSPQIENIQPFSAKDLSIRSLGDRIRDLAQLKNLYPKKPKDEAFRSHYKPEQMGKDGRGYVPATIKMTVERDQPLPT

molecule="CN(C(=O)[C@@H]1CC[C@@H]2CCCC[C@H](NC(=O)c3cc4cc(C(F)(F)P(=O)(O)O)ccc4[nH]3)C(=O)N21)c1ccccc1 [Compound 1]" property_measured=IC50 reported_result="0.3 to 3 µM"
molecule="O=C(N[C@H]1CCCC[C@H]2CC[C@@H](C(=O)N3CC(C(=O)N4CCOCC4)C3)N2C1=O)c1cc2cc(C(F)(F)P(=O)(O)O)ccc2s1 [Compound 93]" property_measured=IC50 reported_result="3 to 30 µM"
molecule="O=C(N[C@H]1CCC[C@H]2CCC[C@@H](C(=O)N3CC(n4ccnc4)C3)N2C1=O)c1cc2cc(C(F)(F)P(=O)(O)O)ccc2s1 [Compound 60]" property_measured=IC50 reported_result="3 to 30 µM"

Under Recombinant STAT6 protein (STAT6 (W123-T658)) (Homo sapiens), report IC50 for N#C[C@@H]1CN(C(=O)[C@@H]2CC[C@@H]3CCCC[C@H](NC(=O)c4cc5cc(C(F)(F)P(=O)(O)O)ccc5s4)C(=O)N32)C[C@H]1c1ccccc1 (relative stereo) [Compound 95]
≤ 0.3 µM

Under Recombinant STAT6 protein (STAT6 (W123-T658)) (Homo sapiens), report IC50 for O=C(N[C@H]1CC[C@H](O)C[C@H]2CC[C@@H](C(=O)N3CC(c4cccnc4)C3)N2C1=O)c1cc2cc(C(F)(F)P(=O)(O)O)ccc2s1 [Compound 16]
0.3 to 3 µM

Ref: patent US20250215029A1
